B1: glmS ribozyme (parent)
chain: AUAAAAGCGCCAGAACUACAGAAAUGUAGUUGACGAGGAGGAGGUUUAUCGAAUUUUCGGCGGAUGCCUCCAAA

# Variants of: B1
# assay.protocol: self-cleavage kobs at 2500 uM GlcN6P; higher = faster cleavage; RNA array
# particulars: with glucosamine-6-phosphate
Fewer inactive variants are shown than the library holds.
Kindly return Yes if reported self-cleavage kobs at 2500 uM GlcN6P is no lower than 0.0003 s⁻¹; return No if it is lower.

Examples with answers:
G44U G59U U65G    No
A12U G62C C70G    No
U30A C70G    No

Please tell me: is the variant U45G C68G at or over 0.0003 s⁻¹ in terms of self-cleavage kobs at 2500 uM GlcN6P?
No

Please tell me: is the variant A33G G44A U49G at or over 0.0003 s⁻¹ in terms of self-cleavage kobs at 2500 uM GlcN6P?
No

Please tell me: is the variant C16G A36G G40A G63U at or over 0.0003 s⁻¹ in terms of self-cleavage kobs at 2500 uM GlcN6P?
No
